// reported a(O1, O2, H3) for each item listed
TESTED_TARGET: MASP-2 CCP2-SP (Homo sapiens (Human), UniProt O00187)
Sequence (O00187 445-686): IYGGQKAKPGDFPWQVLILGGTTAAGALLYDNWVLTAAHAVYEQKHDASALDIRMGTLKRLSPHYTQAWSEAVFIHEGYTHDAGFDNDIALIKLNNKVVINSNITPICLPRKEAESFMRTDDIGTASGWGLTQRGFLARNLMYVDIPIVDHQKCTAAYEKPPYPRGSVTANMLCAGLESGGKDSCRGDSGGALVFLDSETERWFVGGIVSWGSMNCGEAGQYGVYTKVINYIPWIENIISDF
Sequence (O00187 364-432 partner): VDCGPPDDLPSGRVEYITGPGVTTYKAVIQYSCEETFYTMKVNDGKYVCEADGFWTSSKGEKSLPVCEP
ASSAY_REMARKS: MASP-2 co-crystallization, X-ray crystallography and structure analysis (H-bonds, van der Waals contacts)
STATED_CONDITIONS: Table A6-2 pharmacophore angle
PARAMETER: a(O1, O2, H3)

{"columns": ["COMPOUND", "REPORTED"],
 "data": [
  ["Cc1nc(N)ccc1CNC(=O)[C@H](C)NC(=O)[C@H]1C[C@H](Cc2cccc(Cl)c2)CN1.Cl.Cl [1328_2]", 149.68],
  ["C[C@H](NC(=O)[C@H]1C[C@@H](c2ccccc2)CN1)C(=O)NCc1ccc2c(N)nccc2c1.Cl.Cl [1089_B]", 152.83],
  ["C[C@H](NC(=O)[C@H]1C[C@@H](c2ccccc2)CCN1)C(=O)NCc1cc(Cl)ccc1O.Cl [1078_14]", 144.55],
  ["C[C@H](NC(=O)[C@@H](CCc1ccccc1)NCCCc1ccc(O)cc1)C(=O)NCc1ccc(C(=N)N)cc1.Cl.Cl", 150.25],
  ["C[C@H](NC(=O)[C@H]1C[C@@H](c2ccccc2)CCN1)C(=O)NCc1cc(Cl)ccc1O.Cl [1078_4]", 141.42],
  ["C[C@H](NC(=O)[C@H]1C[C@@H](c2ccccc2)CCN1)C(=O)NCc1cc(Cl)ccc1O.Cl [1078_15]", 143.22],
  ["Cc1nc(N)ccc1CNC(=O)[C@H](C)NC(=O)[C@H]1C[C@H](Cc2cccc(Cl)c2)CN1.Cl.Cl [1328_3]", 151.35],
  ["Cc1cc(Cl)cc(CNC(=O)[C@H](C)NC(=O)[C@H]2C[C@H](Cc3ccccc3)CN2)c1O", 129.22],
  ["C[C@H](NC(=O)[C@H]1C[C@@H](c2ccccc2)CN1)C(=O)NCc1ccc2c(N)nccc2c1.Cl.Cl [1089_A]", 153.00]
]}
